Where do the numbers come from? From ChEMBL document CHEMBL4190237.

biological target: Acetylcholinesterase (Electrophorus electricus, UniProt O42275)
Sequence (O42275 whole entry): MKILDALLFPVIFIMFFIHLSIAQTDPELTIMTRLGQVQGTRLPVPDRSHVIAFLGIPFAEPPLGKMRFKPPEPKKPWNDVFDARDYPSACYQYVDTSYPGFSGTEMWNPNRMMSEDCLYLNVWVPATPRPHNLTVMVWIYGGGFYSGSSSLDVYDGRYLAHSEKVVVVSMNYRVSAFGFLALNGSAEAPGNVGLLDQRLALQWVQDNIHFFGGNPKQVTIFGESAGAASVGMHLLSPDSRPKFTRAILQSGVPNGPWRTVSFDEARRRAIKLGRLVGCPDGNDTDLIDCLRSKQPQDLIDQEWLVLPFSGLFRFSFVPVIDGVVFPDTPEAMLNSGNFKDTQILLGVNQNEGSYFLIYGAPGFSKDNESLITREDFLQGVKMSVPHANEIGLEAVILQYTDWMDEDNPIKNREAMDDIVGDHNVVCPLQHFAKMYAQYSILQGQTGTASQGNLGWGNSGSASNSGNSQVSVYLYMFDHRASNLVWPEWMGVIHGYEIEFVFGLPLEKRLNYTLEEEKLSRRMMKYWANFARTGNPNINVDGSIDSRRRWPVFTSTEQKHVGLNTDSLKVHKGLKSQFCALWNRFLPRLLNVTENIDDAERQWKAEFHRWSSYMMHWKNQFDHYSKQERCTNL
measurement-name: pIC50
The value called pIC50 is obtained by taking minus log10 of the concentration in mol/L.

[ask] Write down the reported pIC50 of NNc1ccc(C(=O)NCCCCCOc2ccc3c(c2)CC(CN2CCC(Cc4ccccc4)CC2)C3=O)cn1 (stereo unspecified) , test system: Acetylcholinesterase (Electrophorus electricus, UniProt O42275).
[reply] 5.96

---

test system: Bovine viral diarrhea virus 1; assay: Antiviral activity against BVDV infected in MDBK cells assessed as protection against virus-induced cytopathic effect after 3 days by MTS/PMS assay; assay type: functional, organism-based; details: Bovine viral diarrhea virus isolates and strains, 72 h
measurement-name: pEC50
The value called pEC50 is obtained by taking minus log10 of the concentration in mol/L.

[ask] If you can, please state the reported pEC50 value of COc1cc2c(cc1OC)/C(=N/NC(N)=S)CC2 .
[reply] 5.27
